- test protocol: HPLC capacity factor (k')
- Type: ADME
readout: Log k'

Worked cases, answers included:
compound string: CC[C@H]1[C@@H](O)CN1c1c(F)cc2c(=O)c(C(=O)O)cn(C3CC3)c2c1F
Log k': 0.679

compound string: CNC1(C)CN(c2cc3c(cc2F)c(=O)c(C(=O)O)cn3C(C)(C)C)C1
Log k': 0.303

compound string: C[C@H]1[C@H](N)CN1c1cc2c(cc1F)c(=O)c(C(=O)O)cn2C1CC1
Log k': -0.0132

a. C[C@H]1N(c2c(F)cc3c(=O)c(C(=O)O)cn(C4CC4)c3c2F)C[C@]1(C)O
b. C[C@H]1[C@H](N)CN1c1nc2c(cc1F)c(=O)c(C(=O)O)cn2CCF
*Q* Which numeric Log k' is bigger, that of a or that of b ? Write down the label of the entry you select.
*A* a
